List of Kd tested on Kappa-type opioid receptor (Mus musculus).
# number only, unit nM dropped from output

Some compounds with known Kd results, for comparison:
Lookup: Give its Kd value. Item: Cl.O=C(/C=C/c1ccco1)N[C@H]1CC[C@@]2(O)[C@H]3Cc4cccc5c4[C@@]2(CCN3CC2CC2)[C@H]1O5
Found: 249

Lookup: Cool, now Cl.O=C(/C=C/c1ccco1)N[C@@H]1CC[C@@]2(O)[C@H]3Cc4cccc5c4[C@@]2(CCN3CC2CC2)[C@H]1O5
Found: 7.03

Lookup: Further, for CN(C(=O)CCc1ccoc1)[C@@H]1CC[C@@]2(O)[C@H]3Cc4cccc5c4[C@@]2(CCN3CC2CC2)[C@H]1O5.Cl ?
Found: 34.5

Proceeding to the next compound to report its Kd.
Lookup: Any idea what its Kd is? The compound is CN(C(=O)CCc1ccoc1)[C@H]1CC[C@@]2(O)[C@H]3Cc4ccc(O)c5c4[C@@]2(CCN3CC2CC2)[C@H]1O5.Cl
Found: 0.13

====

MPE values by entry
- System: Mus musculus
- assayName: Antinociception activity in male Swiss Webster mouse model assessed as increase in maximum possible effect at 10 mg/kg, sc measured after 20 mins by warm-water tail immersion assay relative to control
- Format: functional
The figure you give is taken to be in %; do not add the unit.

Lookup: Field request: MPE | item: CN(C(=O)CCc1ccoc1)[C@H]1CC[C@@]2(O)[C@H]3Cc4ccc(O)c5c4[C@@]2(CCN3CC2CC2)[C@H]1O5.Cl
Found: 40

Lookup: Next compound: CN(C(=O)CCc1ccco1)[C@H]1CC[C@@]2(O)[C@H]3Cc4ccc(O)c5c4[C@@]2(CCN3CC2CC2)[C@H]1O5.Cl
Found: 100

Alright, here's another compound for you.
Lookup: # lookup: MPE of CN(C(=O)/C=C/c1ccoc1)[C@@H]1CC[C@@]2(O)[C@H]3Cc4ccc(O)c5c4[C@@]2(CCN3CC2CC2)[C@H]1O5.Cl [NALFURAFINE HYDROCHLORIDE]
Found: 80

====

- systemTested: Delta-type opioid receptor (Homo sapiens)
- Sequence (P41143 whole entry): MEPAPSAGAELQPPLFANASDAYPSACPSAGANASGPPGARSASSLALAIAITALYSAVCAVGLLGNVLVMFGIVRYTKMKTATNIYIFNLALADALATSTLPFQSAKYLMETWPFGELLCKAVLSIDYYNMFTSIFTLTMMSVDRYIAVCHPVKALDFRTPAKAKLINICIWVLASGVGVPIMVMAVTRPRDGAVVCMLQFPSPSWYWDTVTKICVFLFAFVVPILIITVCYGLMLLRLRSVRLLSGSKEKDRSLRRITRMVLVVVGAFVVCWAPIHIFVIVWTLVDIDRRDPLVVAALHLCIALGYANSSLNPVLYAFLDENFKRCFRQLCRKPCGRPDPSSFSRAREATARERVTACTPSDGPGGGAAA
- assayName: Displacement of [3H]diprenorphine from human DOR expressed in CHO cells assessed as dissociation constant incubated for […] by radioligand binding assay
- Format: cell-based
reportedEndpoint: Kd
Please state the number and follow it with the unit.

Sample records with Kd:
Lookup: Entry Cl.O=C(/C=C/c1ccco1)N[C@H]1CC[C@@]2(O)[C@H]3Cc4ccc(O)c5c4[C@@]2(CCN3CC2CC2)[C@H]1O5 : reported Kd = ?
Found: 8.75 nM

Lookup: What do you have for Cl.O=C(CCc1ccco1)N[C@@H]1CC[C@@]2(O)[C@H]3Cc4cccc5c4[C@@]2(CCN3CC2CC2)[C@H]1O5 ?
Found: 800 nM

Turning now to a further compound:
Lookup: Request the reported Kd associated with Cl.O=C(CCc1ccco1)N[C@@H]1CC[C@@]2(O)[C@H]3Cc4ccc(O)c5c4[C@@]2(CCN3CC2CC2)[C@H]1O5
Found: 33 nM

====

- Tested on: Mus musculus
- assayName: Antinociception activity in male Swiss Webster mouse model assessed as increase in maximum possible effect at 10 mg/kg, sc measured after 20 mins by warm-water tail immersion assay relative to control
- Assay type: functional
reportedEndpoint: MPE

Worked examples, 4 compounds total:
Lookup: Sample Cl.O=C(CCc1ccco1)N[C@H]1CC[C@@]2(O)[C@H]3Cc4ccc(O)c5c4[C@@]2(CCN3CC2CC2)[C@H]1O5 — what was its MPE?
Found: <=40%

Lookup: Check Cl.O=C(CCc1ccoc1)N[C@@H]1CC[C@@]2(O)[C@H]3Cc4cccc5c4[C@@]2(CCN3CC2CC2)[C@H]1O5 too.
Found: 40%

Lookup: Let us now turn to CN(C(=O)/C=C/c1ccco1)[C@H]1CC[C@@]2(O)[C@H]3Cc4cccc5c4[C@@]2(CCN3CC2CC2)[C@H]1O5.Cl
Found: 80%

Lookup: Also need CN(C(=O)/C=C/c1ccco1)[C@@H]1CC[C@@]2(O)[C@H]3Cc4ccc(O)c5c4[C@@]2(CCN3CC2CC2)[C@H]1O5.Cl , thanks.
Found: 100%

Next:
Lookup: Which measured MPE value corresponds to Cl.O=C(/C=C/c1ccco1)N[C@@H]1CC[C@@]2(O)[C@H]3Cc4ccc(O)c5c4[C@@]2(CCN3CC2CC2)[C@H]1O5 ?
Found: 80%

Lookup: Now consider CN(C(=O)CCc1ccoc1)[C@@H]1CC[C@@]2(O)[C@H]3Cc4cccc5c4[C@@]2(CCN3CC2CC2)[C@H]1O5.Cl .
Found: <=40%

Lookup: Proceed to Cl.O=C(CCc1ccoc1)N[C@@H]1CC[C@@]2(O)[C@H]3Cc4ccc(O)c5c4[C@@]2(CCN3CC2CC2)[C@H]1O5
Found: <=40%

Lookup: Same thing, different compound: Cl.O=C(CCc1ccoc1)N[C@H]1CC[C@@]2(O)[C@H]3Cc4ccc(O)c5c4[C@@]2(CCN3CC2CC2)[C@H]1O5
Found: <=40%

Lookup: Queued: CN(C(=O)CCc1ccoc1)[C@H]1CC[C@@]2(O)[C@H]3Cc4cccc5c4[C@@]2(CCN3CC2CC2)[C@H]1O5.Cl
Found: 80%

====

Parameter log10(Kd), tested on Kappa-type opioid receptor (Mus musculus, UniProt P33534), listed per item.
Sequence (P33534 whole entry): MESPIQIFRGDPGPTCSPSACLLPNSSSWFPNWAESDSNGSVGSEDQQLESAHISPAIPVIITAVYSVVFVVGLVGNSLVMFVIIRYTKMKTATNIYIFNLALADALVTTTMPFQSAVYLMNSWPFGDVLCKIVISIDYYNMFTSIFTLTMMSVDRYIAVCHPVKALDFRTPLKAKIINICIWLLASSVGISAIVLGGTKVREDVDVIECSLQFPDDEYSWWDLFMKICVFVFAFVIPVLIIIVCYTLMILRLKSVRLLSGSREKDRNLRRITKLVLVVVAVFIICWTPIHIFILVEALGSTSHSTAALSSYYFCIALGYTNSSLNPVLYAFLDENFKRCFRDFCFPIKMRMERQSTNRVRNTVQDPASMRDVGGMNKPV
Each number you see is log10 of Kd, and the unit inside the log is pM.

These recorded examples may help you get a feel for the data.
Lookup: Fill in: log10(Kd) of CN(C(=O)/C=C/c1ccco1)[C@@H]1CC[C@@]2(O)[C@H]3Cc4ccc(O)c5c4[C@@]2(CCN3CC2CC2)[C@H]1O5.Cl is ___
Found: 2.34

Lookup: Cool, now CN(C(=O)/C=C/c1ccco1)[C@@H]1CC[C@@]2(O)[C@H]3Cc4cccc5c4[C@@]2(CCN3CC2CC2)[C@H]1O5.Cl
Found: 3.61

Lookup: Can you handle CN(C(=O)CCc1ccoc1)[C@@H]1CC[C@@]2(O)[C@H]3Cc4ccc(O)c5c4[C@@]2(CCN3CC2CC2)[C@H]1O5.Cl next?
Found: 2.45

New cases:
Lookup: Which log10(Kd) value belongs to Cl.O=C(CCc1ccco1)N[C@@H]1CC[C@@]2(O)[C@H]3Cc4ccc(O)c5c4[C@@]2(CCN3CC2CC2)[C@H]1O5 ?
Found: 2.79

Lookup: Do the same for Cl.O=C(CCc1ccoc1)N[C@H]1CC[C@@]2(O)[C@H]3Cc4cccc5c4[C@@]2(CCN3CC2CC2)[C@H]1O5 please
Found: 5.21

Lookup: // query: Cl.O=C(/C=C/c1ccco1)N[C@H]1CC[C@@]2(O)[C@H]3Cc4ccc(O)c5c4[C@@]2(CCN3CC2CC2)[C@H]1O5
Found: 3.03

====

Parameter pKd: see the listing below.
- systemTested: Kappa-type opioid receptor (Mus musculus, UniProt P33534)
// field semantics: pKd = negative decimal log of concentration (mol/L)

Answered cases to consult:
Lookup: If you can, please state the reported pKd value of CN(C(=O)/C=C/c1ccco1)[C@H]1CC[C@@]2(O)[C@H]3Cc4ccc(O)c5c4[C@@]2(CCN3CC2CC2)[C@H]1O5.Cl .
Found: 9.85

Lookup: Follow-up item: Cl.O=C(CCc1ccoc1)N[C@@H]1CC[C@@]2(O)[C@H]3Cc4cccc5c4[C@@]2(CCN3CC2CC2)[C@H]1O5
Found: 8.08

Lookup: And the next one, Cl.O=C(CCc1ccco1)N[C@@H]1CC[C@@]2(O)[C@H]3Cc4cccc5c4[C@@]2(CCN3CC2CC2)[C@H]1O5 ?
Found: 7.63

Further cases:
Lookup: What value of pKd has been recorded for this entry: Cl.O=C(/C=C/c1ccco1)N[C@@H]1CC[C@@]2(O)[C@H]3Cc4ccc(O)c5c4[C@@]2(CCN3CC2CC2)[C@H]1O5
Found: 9.77

====

Item-by-item account of pKd
- systemTested: Delta-type opioid receptor (Homo sapiens)
- assayName: Displacement of [3H]diprenorphine from human DOR expressed in CHO cells assessed as dissociation constant incubated for […] by radioligand binding assay
- Assay type: cell-based
Scale: negative log10 of molar concentration, which is what pKd denotes.

Below are worked cases with known answers.
Lookup: Which measured pKd value corresponds to CN(C(=O)/C=C/c1ccco1)[C@H]1CC[C@@]2(O)[C@H]3Cc4ccc(O)c5c4[C@@]2(CCN3CC2CC2)[C@H]1O5.Cl ?
Found: 9.03

Lookup: Now the compound CN(C(=O)CCc1ccoc1)[C@H]1CC[C@@]2(O)[C@H]3Cc4cccc5c4[C@@]2(CCN3CC2CC2)[C@H]1O5.Cl
Found: 7.31

Lookup: How about this compound: CN(C(=O)CCc1ccoc1)[C@@H]1CC[C@@]2(O)[C@H]3Cc4ccc(O)c5c4[C@@]2(CCN3CC2CC2)[C@H]1O5.Cl
Found: 8.07

***
Lookup: # query: pKd of entry CN(C(=O)CCc1ccco1)[C@@H]1CC[C@@]2(O)[C@H]3Cc4cccc5c4[C@@]2(CCN3CC2CC2)[C@H]1O5.Cl
Found: 6.27

The values you see were collected from ChEMBL document CHEMBL5506068.
